Each recorded value in this set is attributed to PubChem BioAssay AID1159580.

- test protocol: chemical genetic growth profiling, strain panel (AID 1159580);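 note: tested at 20 µM; growth read once vehicle control cultures reached saturation at 30 °C; 1 = growth at the plate median or of vehicle wells; lower values mean less growth of the strain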
- condition info: S. cerevisiae deletion strains, growth OD, locus YLR403W, strain SFP1, hits give low values
Hit rate of the full screen: of about 5,500 compounds, about 2,000 (36%) were called active. Inconclusive results (about 18%) are left out. The list shows a part of the results.
Below, each entry is listed with its recorded normalized growth.

given smiles | normalized growth
Cc1c(C)c(C)c(CSC(N)=Nc2ccc(F)cc2)c(C)c1C | 0.953
N#CC(C#N)=C/C=C(/Sc1nc2ccccc2s1)c1ccc(Br)cc1 | 0.0212
O=[N+]([O-])/C=C/c1ccc(F)cc1 | -0.000358
CC(=O)Nc1ccc([N+](=O)[O-])cc1[N+](=O)[O-] | 0.21
NC(=Nc1ccc(F)cc1)SCc1c(Cl)cccc1Cl | 0.975
O=C(c1ccc2ccccc2c1)N1CCN(c2ccnc3cc(Cl)ccc23)CC1 | 0.951
O=C(Nc1ccc(N2CCOCC2)cc1)c1ccc(-n2cccn2)cc1 | 0.984
